- experiment-summary: Kinetic study: plasma kinetics of TMC278 after single IM or SC injection of a nanosuspension
- Assay type: in vivo, male beagle dogs
- measurement-conditions: male, beagle, dog, plasma, intramuscular, 5 mg/kg, plasma concentration of TMC278, single IM 5 mg/kg TMC278 nanosuspension, mean of 2 dogs, 2208 h (d92)
endpoint-label: concentration at 2208 h (ng/mL)
State just the number; it will be interpreted in ng/mL.

Given the compound Cc1cc(C=CC#N)cc(C)c1Nc1ccnc(Nc2ccc(C#N)cc2)n1 [TMC278] , what is its reported concentration at 2208 h?
1.41

====

- experiment-summary: Kinetic study: plasma kinetics of TMC278 after single IM or SC injection of a nanosuspension;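 note: healthy male beagle dogs injected in both biceps femoris muscles (IM) or both thoracal sides (SC), total volume 0.2 mL/kg, drug measured in plasma from blood samples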
- Assay type: in vivo, male beagle dogs
- measurement-conditions: male, beagle, dog, plasma, sc, 5 mg/kg, plasma concentration of TMC278, single SC 5 mg/kg TMC278 nanosuspension, mean of 2 dogs, 312 h (d13)
endpoint-label: concentration at 312 h (ng/mL)
State just the number; it will be interpreted in ng/mL.

Given the compound Cc1cc(C=CC#N)cc(C)c1Nc1ccnc(Nc2ccc(C#N)cc2)n1 [TMC278] , what is its reported concentration at 312 h?
30.3
